Tested on: Trichomonas vaginalis G3 trophozoites
Settings: HTS, parasite screen at 1 µg/mL, replicate 2
# T.vaginalis_%inb_Rep2 annotations
TEST_READOUT: T.vaginalis_%inb_Rep2

> print(dat)
                                   compound           test.readout  reported.measurement
1  C=C1[C@@H](C)[C@H]2[C@H](Cc3ccccc3)NC(=O)[C@]23[C@H](OC(C)=O)[C@@H]2O[C@H]2[C@@](C)(O)C(=O)[C@@H](C)C/C=C\[C@H]3[C@@H]1O  T.vaginalis_%inb_Rep2                12.22%
2  COc1cc2c(oc(=O)c3cc(C)cc(OC)c32)c2c(C3OC(C(C)O)C(O)C3O)ccc(O)c12 (stereo not drawn)  T.vaginalis_%inb_Rep2                13.92%
3                 COC1=C(OC)C(=O)C(C)=CC1=O  T.vaginalis_%inb_Rep2                 9.62%

---

System: Trichomonas vaginalis G3 trophozoites
Settings: parasite screen at 1 µg/mL, replicate 2
# T.vaginalis_%inb_Rep2 annotations

SMILES_ENTRY	UNIT_STRING	T.vaginalis_%inb_Rep2
COc1cc2c(c3oc4cccc(O)c4c(=O)c13)[C@@H]1C=CO[C@@H]1O2	%	14.32
CC1=C[C@H]2O[C@@H]3[C@H](O)[C@@H](O)[C@](C)([C@@]2(CO)C[C@@H]1O)[C@]31CO1	%	13.71
COc1cc(/C=C/C(=O)O)cc(OC)c1O	%	14.02
CO[C@H]1C[C@@H]2CC[C@@H](C)[C@@](O)(O2)C(=O)C(=O)N2CCCC[C@H]2C(=O)O[C@H]([C@H](C)C[C@@H]2CC[C@@H](OC(=O)C(C)(CO)CO)[C@H](OC)C2)CC(=O)[C@H](C)/C=C(\C)[C@@H](O)[C@@H](OC)C(=O)[C@H](C)C[C@H](C)/C=C/C=C/C=C/1C	%	9.14

---

Test system: T. vaginalis
Assay: Medium-throughput (MTS) confirmatory dose-response growth assay, T. vaginalis
Type: cell-based, Trichomonas vaginalis
Conditions: Trichomonas vaginalis; 96-well, 10,000 cells/mL in 50 μL, 48 h, mean ± SEM; >10 = no appreciable activity at highest dose
TEST_READOUT: log10(IC50) (log10 of the value in µM)

COMPOUND	REPORTED_MEASUREMENT
CSC[S@+]([O-])C[C@H](CO)NC(=O)/C=C/c1c(C)[nH]c(=O)[nH]c1=O	0.36
CCC(=O)CCCCC[C@@H]1NC(=O)[C@H]2CCCCN2C(=O)[C@H]([C@@H](C)CC)NC(=O)[C@H](Cc2cn(OC)c3ccccc23)NC1=O	0.08
O=[N+]([O-])c1ncc[nH]1	0.99
Nc1ncnc2c1ccn2[C@@H]1O[C@H](CO)[C@@H](O)[C@H]1O	0.38
CO[C@@H]1[C@H](OC(=O)/C=C/C=C/C=C/C=C/C(=O)O)CC[C@]2(CO2)[C@H]1[C@@]1(C)O[C@@H]1CC=C(C)C [Fumagillin, fumagillin, reference compound]	-0.59
Cc1ncc([N+](=O)[O-])n1CCO	0.15
N#Cc1cn([C@@H]2O[C@H](CO)[C@@H](O)[C@H]2O)c2ncnc(N)c12 [Toyocamycin, toyocamycin, reference compound]	-0.52
